- tested_on: Free fatty acid receptor 1 (Homo sapiens)
- assay_explanation: Agonist activity at eYFP-tagged FFA1 receptor (unknown origin) expressed in human Flp-In T-REX-293 cells measured for 90 secs by Fura-2 AM dye based calcium mobilization assay
- Format: functional, cell-based
measurement_label: EC50

# smiles_data, value_observed
measured = [
    ("O=C(O)CCc1ccc(C#Cc2cccc(OCCOCCNc3ccc([N+](=O)[O-])c4nonc34)c2)cc1F", "> 1 µM"),
]

Pending molecule:
[in] Form field - read-out: EC50; system: Free fatty acid receptor 1 (Homo sapiens); submitted item: Cc1cc(OCCOCCNc2ccc([N+](=O)[O-])c3nonc23)ccc1-c1cccc(COc2ccc(CCC(=O)O)c(F)c2)c1
[out] 0.187 µM

----------
- tested_on: Free fatty acid receptor 1 (Homo sapiens)
- assay_explanation: Binding affinity to N-terminal NLUC-tagged FFA1 receptor (unknown origin) expressed in human Flp-In T-REX-293 cell membrane coexpressing mGluR5 preincubated for 5 mins followed by TUG-905 addition measured after 15 mins by kinetic BRET assay
- Type: cell membranes
measurement_label: pKd
Please report pKd as the negative decimal logarithm of the molar concentration, giving only the number.

[in] Entry Cc1cc(OCCOCCNc2ccc([N+](=O)[O-])c3nonc23)ccc1-c1cccc(COc2ccc(CCC(=O)O)c(F)c2)c1 has what pKd?
[out] 8.40

----------
- tested_on: Free fatty acid receptor 1 (Homo sapiens)
- assay_explanation: Agonist activity at FFA1 receptor (unknown origin) expressed in human […] cells measured for 90 secs by Fura-2 AM dye based calcium mobilization assay
- Format: functional, cell-based
measurement_label: EC50 (nM)
Only the number, expressed in nM, is required.

[in] Form field - read-out: EC50; system: Free fatty acid receptor 1 (Homo sapiens); submitted item: CCCCCCCCCCCC(=O)O [DODECANOATE]
[out] 759

----------
- tested_on: Free fatty acid receptor 1 (Homo sapiens)
- assay_explanation: Displacement of 3-(2-Fluoro-4-((2'-methyl-4'-(2-(2-((7-nitrobenzo[c][1,2,5]-oxadiazol-4-yl)amino)ethoxy)ethoxy)-[1,1'-biphenyl]-3-yl)-methoxy)phenyl)propanoic acid from N-terminal NLUC-tagged FFA1 receptor (unknown origin) expressed in human Flp-In T-REX-293 cell membrane coexpressing mGluR5 incubated for 1 hr by equilibrium BRET assay
# Lookup of reported pKi keyed by entry
Please report pKi as the negative decimal logarithm of the molar concentration, giving only the number.

// below: answered compounds
# compound, pKi
measured = [
    ("O=C(O)CCc1ccc(NCc2cccc(Oc3ccccc3)c2)cc1", 6.66),
    ("Cc1cc(Oc2ncc(C(F)(F)F)cc2Cl)ccc1CC1SC(=O)NC1=O (centres undefined)", 7.16),
    ("O=C(O)CCc1ccc(OCc2ccccc2)cc1", 4.86),
]

Pending compound:
[in] Entry Cc1ccccc1C#Cc1ccc(CCC(=O)O)cc1 has what pKi?
[out] 6.20

----------
- tested_on: Free fatty acid receptor 1 (Homo sapiens, UniProt O14842)
- Sequence (O14842 whole entry): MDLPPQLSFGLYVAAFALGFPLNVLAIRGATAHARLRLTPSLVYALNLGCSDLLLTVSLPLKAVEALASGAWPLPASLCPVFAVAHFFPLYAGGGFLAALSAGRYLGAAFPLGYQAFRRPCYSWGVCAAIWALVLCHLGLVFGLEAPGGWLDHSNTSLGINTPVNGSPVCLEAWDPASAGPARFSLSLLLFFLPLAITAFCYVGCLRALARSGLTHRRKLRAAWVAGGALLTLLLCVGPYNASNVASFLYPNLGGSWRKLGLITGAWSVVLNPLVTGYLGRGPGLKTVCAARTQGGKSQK
- assay_explanation: Agonist activity at human C-terminal eYFP-tagged FFA1 receptor expressed in HEK-293 cells assessed as beta-arrestin2 recruitment incubated for 5 mins by BRET assay relative to TUG-770
- Format: cell-based
- conditions: HEK293
measurement_label: Emax (%)
Only the number, expressed in %, is required.

// below: answered compounds
# compound, value_observed
data = [
    ("N#CCc1ccccc1C#Cc1ccc(CCC(=O)O)cc1", 95),
    ("Cc1cc(Oc2ncc(C(F)(F)F)cc2Cl)ccc1CC1SC(=O)NC1=O (stereo not drawn)", 95),
]

[in] Entry CCCCCCCCCCCC(=O)O [DODECANOATE] has what Emax?
[out] 130

[in] Entry O=C(O)CCc1ccc(OCc2ccccc2)cc1 has what Emax?
[out] 90

// provenance: ChEMBL document CHEMBL3817814
